Source listed as patent US20220242950A1.

# testedOn: T1, recombinant mf IL1RAP aa21-367 (cynomolgus monkey (Macaca fascicularis), UniProt A0A2K5X5J5 21-367)
# T1 construct: also called cynomolgus monkey IL1RAP; cyno IL1RAP
# T1 sequence: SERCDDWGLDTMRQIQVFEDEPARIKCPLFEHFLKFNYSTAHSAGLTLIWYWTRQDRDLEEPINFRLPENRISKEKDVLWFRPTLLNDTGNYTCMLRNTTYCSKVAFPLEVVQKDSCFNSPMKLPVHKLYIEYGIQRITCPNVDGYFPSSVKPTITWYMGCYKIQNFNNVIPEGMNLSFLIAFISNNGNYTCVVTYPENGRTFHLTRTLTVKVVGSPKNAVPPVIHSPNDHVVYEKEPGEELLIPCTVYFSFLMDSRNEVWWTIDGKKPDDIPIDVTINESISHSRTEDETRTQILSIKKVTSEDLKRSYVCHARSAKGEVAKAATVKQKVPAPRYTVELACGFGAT
# experimentalProtocol: binding ELISA, coated recombinant mf IL1RAP aa21-367
In this section we review reported IC50 values for a set of binders.
Give the value in µg/mL but do not write µg/mL after it.

These solved cases illustrate the format of a correct answer.
h48D2 VH5:VL1 (antibody, human IgG1, kappa, L234A L235A, V domains shown, Humanized; also called VL1:VH5) VH: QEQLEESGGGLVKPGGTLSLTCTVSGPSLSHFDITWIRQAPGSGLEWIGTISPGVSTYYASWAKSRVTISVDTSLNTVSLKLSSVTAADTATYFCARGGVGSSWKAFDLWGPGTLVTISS VL: DIVMTQSPSSLSASVGDRVTITCQASESISTALAWYQQKPGKAPKLLIYKASTLPSGVPSRFSGSGSGTDFTLTISSLQPEDFATYYCQQGFSSGNVHNAFGGGTKVVIKR; 0.0261
h48D2 VH3:VL5 (antibody, human IgG1, kappa, L234A L235A, V domains shown, Humanized; also called VL5:VH3) VH: EVQLLESGGGLVLPGGSLRLSCAASGPSLSHFDITWVRQAPGKGLEWVSTISPGVSTYYASWAKSRFTISRDNSKNTLYLQMSSLRAEDTAVYYCARGGVGSSWKAFDLWGLGTTVTVSS VL: APVLTQSPATLEASVGDRVTITCQASESISTALAWYQQKPGQPPKLLIYKASTLPSGVPSRFSGSGSGTEFTLTISDLESDDAATYYCQQGFSSGNVHNAFGGGTEVVVKR; 0.0279

We now examine a further binder.
Short answer for h48D2 VH1:VL4 (antibody, human IgG1, kappa, L234A L235A, V domains shown, Humanized; also called VL4:VH1) VH: EVQLEESGGGLVKPGGSLRLSCAASGPSLSHFDITWVRQAPGKGLEWVSTISPGVSTYYASWAKSRFTISRDNSKNTLYLQMNSLRAEDTAVYYCARGGVGSSWKAFDLWGRGTLVTVSS VL: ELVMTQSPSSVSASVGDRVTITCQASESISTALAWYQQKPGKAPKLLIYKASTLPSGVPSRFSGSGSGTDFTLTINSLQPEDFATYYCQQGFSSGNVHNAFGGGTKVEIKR : IC50 was 0.02
